# Tested on: Trypanosoma brucei
# protocol_text: DNDI: Inhibition of Human African Trypanosomiasis, SBRI 427, in vitro at 2 ug.mL-1
# Assay type: functional
The whole screen tested about 4,400 compounds, of which about 390 (8.9%) showed an effect of 50% or more. What follows is part of a selection rich in strong results, with near analogues and random picks from the rest.
Mark Satisfied for reported % inhibition of 20% or greater; mark Not satisfied for anything smaller.

compound | measurement_target | assigned_category
COc1ccc(CN/C(=N\O)c2ccc(C)nc2Oc2ccc(C)cc2OC)cc1 | Trypanosoma brucei | Satisfied
CC(NCc1coc(-c2cccc3ccccc23)n1)c1ccccc1 (stereo unspecified) | Trypanosoma brucei | Satisfied
N#CCCN(Cc1coc(-c2ccc(Br)cc2)n1)CC1CCCO1 (stereo unspecified) | Trypanosoma brucei | Not satisfied
COc1cccc(Oc2ccc(/C(=N/O)N3CCSC3)cn2)c1 | Trypanosoma brucei | Not satisfied
CCC(NCc1coc(-c2cccc3ccccc23)n1)c1ccccc1 (stereo unspecified) | Trypanosoma brucei | Satisfied
Cc1ccc(C(C)NCc2coc(-c3cccc4ccccc34)n2)cc1 (stereo unspecified) | Trypanosoma brucei | Not satisfied

###

# Test system: Trypanosoma brucei
# protocol_text: DNDI: Inhibition of Human African Trypanosomiasis, SBRI 427, in vitro at 2 ug.mL-1
# Format: functional
Hit rate of the full screen: of about 4,400 compounds, about 390 (8.9%) showed an effect of 50% or more. This excerpt belongs to a sample that is enriched for strong results.

mol | uom | % inhibition
CC(C)c1ccc(COc2ncccc2/C(=N/O)NC2CCCC2)cc1 | % | 21
Cc1ccc(/C(=N/O)N2CCSCC2)c(OCc2cccc(F)c2)n1 | % | -17
CCN(Cc1coc(-c2cccc(OC)c2)n1)c1cccc2ccccc12 | % | 11
Cc1cccc(Oc2nc(C)ccc2/C(=N/O)NCC(C)C)c1 | % | 94
CC1(C)Cc2cccc(Oc3ccc(/C(=N/O)NCC4CCCCC4)cn3)c2O1 | % | 34
COC(=O)C1CCN(/C(=N\O)c2cccnc2OCC2CCCCC2)CC1 | % | 6
Cc1ccc(/C(=N/O)NCC(C)C)c(Oc2cccc(C(C)C)c2)n1 | % | 3
COc1ccc(N2CCN(Cc3coc(-c4ccccc4Cl)n3)CC2)cc1 | % | -8
Cc1ccc(/C(=N/O)NCc2cc(F)cc(F)c2)c(Oc2cccc(F)c2)n1 | % | 28
COc1ccc(Oc2nc(C)ccc2/C(=N/O)N(C)c2ccccc2)cc1 | % | -6
Cc1ccc(/C(=N/O)NCC(C)C)c(Oc2ccc3ccccc3c2)n1 | % | 13

###

# System: Trypanosoma brucei
# protocol_text: DNDI: Inhibition of Human African Trypanosomiasis, SBRI 427, in vitro at 2 ug.mL-1
# Format: functional
Out of some 4,400 compounds screened, about 390 (8.9%) showed an effect of 50% or more. The sample as a whole holds a higher share of strong results than the screen did.
Output schema: class label derived from % inhibition. Mapping: low: < 10%; moderate: ≥ 10% and < 40%; high: ≥ 40%

mol | assigned_category
Cc1ccc(/C(N)=N/O)c(Oc2c(F)c(F)cc(F)c2F)n1 | low
COc1ccc(-c2nc(CNC[C@@H]3CC[C@H]4C[C@@H]3C4(C)C)co2)cc1 | high
COc1cc(-c2nc(CNC[C@@H]3CC[C@H]4C[C@@H]3C4(C)C)co2)cc(OC)c1OC | moderate
CCCN(CCC)Cc1coc(-c2cccs2)n1 | moderate
Cc1ccc(-c2nc(CNC[C@@H]3CCCO3)co2)cc1 | moderate
CC1(C)[C@H]2CC[C@@H](CNCc3coc(-c4cccc(F)c4)n3)[C@@H]1C2 | high
CC1(C)[C@H]2CC[C@@H](CNCc3coc(-c4ccc(F)cc4)n3)[C@@H]1C2 | high
Cc1ccc(-c2nc(CN3CC[C@H]4CCCC[C@@H]4C3)co2)cc1 | moderate
Cc1ccc(-c2nc(CNCc3ccc(C)o3)co2)cc1 | low
CC1(C)[C@H]2CC[C@@H](CNCc3coc(-c4cccc5ccccc45)n3)[C@@H]1C2 | high
